Each recorded value in this set is attributed to patent US11123292B2.

Item-by-item account of Relative Energy Difference (RED) with cholesterol
Test: Relative Energy Difference (RED) with cholesterol, calculated from HSP
Conditions: RED=Ra/Ro, Ro of cholesterol 12.6
Enter a number only.

// field: Relative Energy Difference (RED) with cholesterol; key: "Cc1ccc(C(C)C)cc1O" ; value = 0.64

Memo: "CC(=O)c1ccccc1" , reported Relative Energy Difference (RED) with cholesterol: 0.66

Documented Relative Energy Difference (RED) with cholesterol of "CC(C)=CCC/C(C)=C/CC/C(C)=C/CC/C=C(\C)CC/C=C(\C)CCC=C(C)C" : 0.52

###

In this section we review reported Relative Energy Difference (RED) with cholesterol values for a set of compounds.
Test: Relative Energy Difference (RED) with cholesterol, calculated from HSP
Details: RED=Ra/Ro, Ro of cholesterol 12.6
Returns: the value as a bare number; no unit string appended.

Sure, the documented Relative Energy Difference (RED) with cholesterol for "C=CCc1ccc(O)c(OC)c1" is 0.53

Then this compound:
Recorded result, "C=CC(=C)CCC=C(C)C" , Relative Energy Difference (RED) with cholesterol: 0.78
